Where these numbers come from: patent US20260125382A1

- target system: CDK2 (Homo sapiens)
- Construct: endogenous in cells; host or cells: MDA-MB-231
- experiment notes: CDK protein degradation activity (Western blotting), CDK2
- Format: cell-based
- condition set: MDA-MB-231 cells, 10 μM, 16 hours, Western blot
Consider the following compounds and their measured Enzyme degradation CDK2 (% remaining) @ 10 μM readings.
readout name: Enzyme degradation CDK2 (% remaining) @ 10 μM (%)

Cc1cccc(C(=O)N[C@H]2C[C@@H](n3cnc4c(NCc5ccc(N6CCN(C(=O)CNc7ccc8c(c7)C(=O)N([C@H]7CCC(=O)NC7=O)C8=O)CC6)cc5)ncnc43)C2)n1	20
Cc1cccc(C(=O)N[C@H]2C[C@@H](n3cnc4c(NC5CCN(CC6CCN(C(=O)CNc7ccc8c(c7)C(=O)N([C@H]7CCC(=O)NC7=O)C8=O)CC6)CC5)ncnc43)C2)n1	30

----------
- target system: CDK9 (Homo sapiens, UniProt P50750)
- Construct: endogenous in cells; host or cells: MDA-MB-231
- Sequence (P50750 whole entry): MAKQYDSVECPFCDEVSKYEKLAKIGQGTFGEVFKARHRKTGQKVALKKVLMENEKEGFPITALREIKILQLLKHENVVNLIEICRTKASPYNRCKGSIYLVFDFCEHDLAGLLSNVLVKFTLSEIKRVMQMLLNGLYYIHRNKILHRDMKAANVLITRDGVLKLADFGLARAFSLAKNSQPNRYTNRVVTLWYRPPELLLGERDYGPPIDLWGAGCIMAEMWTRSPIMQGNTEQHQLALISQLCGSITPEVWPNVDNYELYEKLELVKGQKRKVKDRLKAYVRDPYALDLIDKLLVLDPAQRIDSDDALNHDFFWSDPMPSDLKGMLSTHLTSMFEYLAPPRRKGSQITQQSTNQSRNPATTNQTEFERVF
- experiment notes: CDK protein degradation activity (Western blotting), CDK9
- Format: cell-based
- condition set: MDA-MB-231 cells, 1 μM, 16 hours, Western blot
Each entry below carries its reported Enzyme degradation CDK9 (% remaining) @ 1 μM.
readout name: Enzyme degradation CDK9 (% remaining) @ 1 μM (%)

Cc1cccc(C(=O)N[C@H]2C[C@H](n3cnc4c(NCCCN5CCN(C(=O)CNc6ccc7c(c6)C(=O)N([C@@H]6CCC(=O)NC6=O)C7=O)CC5)ncnc43)C2)n1 [Compound 141]	80
Cc1cccc(C(=O)N[C@H]2C[C@@H](n3cnc4c(NCc5cccc(N6CCN(CC7CCN(c8cccc9c8C(=O)N([C@H]8CCC(=O)NC8=O)C9=O)CC7)CC6)c5)ncnc43)C2)n1 [Compound 136]	70
O=C(COc1cccc2c1C(=O)N(C1CCC(=O)NC1=O)C2=O)NCC1CCC(CN2CCN(c3ccc(Nc4ncnc5c4ncn5C4CC(NC(=O)Cc5ccccc5)C4)cc3)CC2)CC1 (stereo not shown) [Compound 219]	10
O=C1CC[C@H](N2C(=O)c3cccc(CCCN4CCC(CN5CCN(c6ccc(Nc7ncnc8c7ncn8C7CC(NC(=O)c8cccc(C(F)(F)F)n8)C7)cc6)CC5)CC4)c3C2=O)C(=O)N1 (stereo partly shown) [Compound 426]	0
O=C1CC[C@H](N2C(=O)c3ccc(NCC(=O)N4CC(N5CCC6(CC5)CC(N5CCN(c7ccc(Nc8ncnc9c8ncn9C8CC(NC(=O)Cc9ccccc9)C8)cc7)CC5)C6)C4)cc3C2=O)C(=O)N1 (stereo partly shown) [Compound 278]	0
O=C1CC[C@H](N2C(=O)c3cccc(NCC(=O)N4CCN(CC5CCN(c6ccc(Nc7ncnc8c7ncn8[C@H]7C[C@@H](NC(=O)c8c(Cl)cccc8Cl)C7)cc6)CC5)CC4)c3C2=O)C(=O)N1 [Compound 311]	0

----------
- target system: CDK2 (Homo sapiens)
- Construct: endogenous in cells; host or cells: MDA-MB-231
- experiment notes: CDK protein degradation activity (Western blotting), CDK2
- Format: cell-based
- condition set: MDA-MB-231 cells, 1 μM, 16 hours, Western blot
Form field: Enzyme degradation CDK2 (% remaining) @ 1 μM (one value per entry).
readout name: Enzyme degradation CDK2 (% remaining) @ 1 μM (%)

O=C1CC[C@H](N2C(=O)c3cccc(N4CCN(CCCN5CCN(c6ccc(Nc7ncnc8c7ncn8C7CC(NC(=O)Cc8ccccc8)C7)cc6)CC5)CC4)c3C2=O)C(=O)N1 (stereo partly shown)	80
O=C1CCN(c2coc3cc(C(=O)NC[C@H]4CC[C@H](CN5CCN(c6ccc(Nc7ncnc8c7ncn8[C@H]7C[C@@H](NC(=O)Cc8ccccc8)C7)cc6)CC5)CC4)ccc23)C(=O)N1	60
O=C1CC[C@H](N2C(=O)c3ccc(NCC(=O)N4CCC(CN5CCC(c6ccc(Nc7ncnc8c7ncn8C7CC(NC(=O)Cc8ccccc8)C7)cc6)CC5)CC4)cc3C2=O)C(=O)N1 (stereo partly shown)	20
O=C1CCN(c2coc3cc(C(=O)N4CCC(CC(=O)N5CCN(c6ccc(Nc7ncnc8c7ncn8[C@H]7C[C@@H](NC(=O)Cc8ccccc8)C7)cc6)CC5)CC4)ccc23)C(=O)N1	50
Cc1cccc(C(=O)N[C@H]2C[C@@H](n3cnc4c(NCc5cccc(OCCCN6CCN(C(=O)CNc7ccc8c(c7)C(=O)N([C@H]7CCC(=O)NC7=O)C8=O)CC6)c5)ncnc43)C2)n1	70
O=C1CC[C@H](N2C(=O)c3ccc(N4CCC(C(=O)N5CCC(CCCN6CCN(c7ccc(Nc8ncnc9c8ncn9C8CC(NC(=O)Cc9ccccc9)C8)cc7)CC6)CC5)CC4)cc3C2=O)C(=O)N1 (stereo partly shown)	50
O=C1CC[C@H](N2C(=O)c3ccc(N4CC(C(=O)N5CCC(CN6CCN(c7ccc(Nc8ncnc9c8ncn9C8CC(NC(=O)c9cccc(F)n9)C8)cc7)CC6)CC5)C4)cc3C2=O)C(=O)N1 (stereo partly shown)	20
Cc1cccc(C(=O)NC2CC(n3cnc4c(NCCC5CCN(CC6CCN(C(=O)C7CCN(c8ccc9c(c8)C(=O)N([C@H]8CCC(=O)NC8=O)C9=O)CC7)CC6)CC5)ncnc43)C2)n1 (stereo partly shown)	60

----------
Recorded Enzyme degradation CDK9 (% remaining) @ 1 μM for the following compounds
- target system: CDK9 (Homo sapiens)
- Construct: endogenous in cells; host or cells: MDA-MB-231
- experiment notes: CDK protein degradation activity (Western blotting), CDK9
- Format: cell-based
- condition set: MDA-MB-231 cells, 1 μM, 16 hours, Western blot
readout name: Enzyme degradation CDK9 (% remaining) @ 1 μM (%)

O=C1CC[C@H](N2C(=O)c3cc(F)c(N4CCC(CCCN5CCN(c6ccc(Nc7ncnc8c7ncn8[C@H]7C[C@@H](NC(=O)Cc8ccccc8)C7)cc6)CC5)CC4)cc3C2=O)C(=O)N1	10
O=C1CC[C@H](n2nnc3ccc(N4CCN(CC5CCN(c6ccc(Nc7ncnc8c7ncn8C7CC(NC(=O)Cc8ccccc8)C7)cc6)CC5)CC4)cc3c2=O)C(=O)N1 (some centres unmarked)	10
O=C1CC[C@H](N2C(=O)c3ccc(NCC(=O)N4CCC(CN5CCN(c6ccc(Nc7ncnc8c7ncn8C7CC(NC(=O)Cc8ccccc8)C7)cc6)CC5)CC4)cc3C2=O)C(=O)N1 (some centres unmarked)	0

----------
- target system: CDK2 (Homo sapiens, UniProt P24941)
- Construct: endogenous in cells; host or cells: MDA-MB-231
- experiment notes: CDK protein degradation activity (Western blotting), CDK2
- Format: cell-based
- condition set: MDA-MB-231 cells, 0.1 μM, 16 hours, Western blot
readout name: Enzyme degradation CDK2 (% remaining) @ 0.1 μM (%)

O=C(COc1cccc2c1C(=O)N(C1CCC(=O)NC1=O)C2=O)NCC1CCC(CN2CCN(c3ccc(Nc4ncnc5c4ncn5C4CC(NC(=O)Cc5ccccc5)C4)cc3)CC2)CC1 (stereo not shown) [Compound 219]	80
O=C1CC[C@H](n2nnc3ccc(N4CCC(CN5CCN(c6ccc(Nc7ncnc8c7ncn8C7CC(NC(=O)c8cccc(Cl)n8)C7)cc6)CC5)CC4)cc3c2=O)C(=O)N1 (stereo partly shown) [Compound 417]	10
O=C1CC[C@H](N2C(=O)c3cccc(CCCN4CCC(CN5CCN(c6ccc(Nc7ncnc8c7ncn8C7CC(NC(=O)c8cccc(C(F)(F)F)n8)C7)cc6)CC5)CC4)c3C2=O)C(=O)N1 (stereo partly shown) [Compound 426]	10
Cc1cccc(C(=O)N[C@H]2C[C@H](n3cnc4c(NCC5CCN(C(=O)CCCCCNc6ccc7c(c6)C(=O)N([C@@H]6CCC(=O)NC6=O)C7=O)CC5)ncnc43)C2)n1 [Compound 65]	100
Cc1cccc(C(=O)NC2CC(n3cnc4c(Nc5ccc(N6CCN(C(=O)COc7ccc8c(c7)C(=O)N([C@H]7CCC(=O)NC7=O)C8=O)CC6)cc5)ncnc43)C2)n1 (stereo partly shown) [Compound 84]	50
Cc1cccc(C(=O)N[C@H]2C[C@@H](n3cnc4c(NCc5cccc(OCCCN6CCN(C(=O)CNc7cccc8c7C(=O)N([C@H]7CCC(=O)NC7=O)C8=O)CC6)c5)ncnc43)C2)n1 [Compound 103]	40
O=C1CC[C@H](N2C(=O)c3cccc(OCC(=O)N4CCC(CN5CCN(c6ccc(Nc7ncnc8c7ncn8[C@H]7C[C@@H](NC(=O)c8c(Cl)cccc8Cl)C7)cc6)CC5)CC4)c3C2=O)C(=O)N1 [Compound 163]	20
O=C1CC[C@H](N2C(=O)c3cccc(N4CCC(CN5CCN(c6ccc(Nc7ncnc8c7ncn8[C@H]7C[C@@H](NC(=O)c8c(Cl)cccc8Cl)C7)cc6)CC5)CC4)c3C2=O)C(=O)N1 [Compound 167]	30
O=C1CC[C@H](N2C(=O)c3cc(F)c(N4CCC(C(=O)N5CCC(CN6CCN(c7ccc(Nc8ncnc9c8ncn9C8CC(NC(=O)c9cccc(F)n9)C8)cc7)CC6)CC5)CC4)cc3C2=O)C(=O)N1 (stereo partly shown) [Compound 468]	50
O=C1CCC(c2ccc(OCC(=O)N3CCC(CCN4CCN(c5ccc(Nc6ncnc7c6ncn7[C@H]6C[C@@H](NC(=O)c7c(Cl)cccc7Cl)C6)cc5)CC4)CC3)cc2)C(=O)N1 (stereo partly shown) [Compound 434]	50
O=C1CC[C@H](n2nnc3ccc(N4CCC(CCN5CCN(c6ccc(Nc7ncnc8c7ncn8C7CC(NC(=O)Cc8ccccc8)C7)cc6)CC5)CC4)cc3c2=O)C(=O)N1 (stereo partly shown) [Compound 324]	70
